Target: Solute carrier family 12 member 5 (Homo sapiens) (UniProt Q9H2X9)
Sequence (Q9H2X9 whole entry, looked up): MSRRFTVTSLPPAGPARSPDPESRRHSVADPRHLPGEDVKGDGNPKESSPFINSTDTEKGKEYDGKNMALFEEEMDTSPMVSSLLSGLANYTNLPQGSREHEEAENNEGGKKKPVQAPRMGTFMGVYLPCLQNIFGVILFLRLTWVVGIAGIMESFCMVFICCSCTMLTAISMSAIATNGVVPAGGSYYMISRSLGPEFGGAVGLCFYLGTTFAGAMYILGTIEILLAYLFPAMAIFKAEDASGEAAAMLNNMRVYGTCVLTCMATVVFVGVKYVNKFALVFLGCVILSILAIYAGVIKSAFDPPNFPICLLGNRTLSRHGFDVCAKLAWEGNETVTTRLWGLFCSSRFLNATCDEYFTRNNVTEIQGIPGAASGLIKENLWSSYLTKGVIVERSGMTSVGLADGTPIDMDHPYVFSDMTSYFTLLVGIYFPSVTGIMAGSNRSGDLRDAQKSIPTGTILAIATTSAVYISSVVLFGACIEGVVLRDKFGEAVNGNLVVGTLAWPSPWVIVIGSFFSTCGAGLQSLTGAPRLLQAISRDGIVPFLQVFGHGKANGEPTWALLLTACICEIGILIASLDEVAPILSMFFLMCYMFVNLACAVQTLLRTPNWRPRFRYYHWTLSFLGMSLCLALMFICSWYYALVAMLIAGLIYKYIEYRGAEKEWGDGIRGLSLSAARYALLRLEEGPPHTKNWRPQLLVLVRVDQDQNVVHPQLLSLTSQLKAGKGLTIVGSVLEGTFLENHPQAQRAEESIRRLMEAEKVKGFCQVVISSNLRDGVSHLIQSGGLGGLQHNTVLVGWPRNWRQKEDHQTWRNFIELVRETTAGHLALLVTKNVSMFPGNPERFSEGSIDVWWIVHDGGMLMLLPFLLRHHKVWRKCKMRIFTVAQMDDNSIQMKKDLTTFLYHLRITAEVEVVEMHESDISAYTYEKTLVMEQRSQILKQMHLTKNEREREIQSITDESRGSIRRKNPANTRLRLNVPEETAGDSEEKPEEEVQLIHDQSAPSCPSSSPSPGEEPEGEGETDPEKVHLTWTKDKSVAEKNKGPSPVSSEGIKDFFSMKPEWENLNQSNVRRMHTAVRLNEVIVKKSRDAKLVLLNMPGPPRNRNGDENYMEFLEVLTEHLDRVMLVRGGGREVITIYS
Experiment: modulation of human KCC2 ion transport – cell-based, HEK293 KCC2, FluoZin-2 fluorescence, MLSMR, primary screen (AID 1456);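 also: slope of fluorescence scaled to starting intensity during 10 to 20 s after thallium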
Settings: KCC2 cells, thallium flux FluoZin-2 fluorescence; at 10 µM
Out of some 190,000 compounds screened, about 4,100 (2.2%) were called active.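 The calls were made as follows: active = thallium flux slope and its plate-corrected score both differing from the plate sample mean at a set confidence after two filtering rounds, in either direction; inactive = the rest.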 The list comes from a sample in which actives are over-represented; it also holds close analogues and randomly drawn compounds.
Classes used: active, inactive

| compound | discrete_label |
| --- | --- |
| Cc1ccc(N2C(=O)C(CC(=O)Nc3cccc(F)c3)N(CCc3ccncc3)C2=O)cc1 (stereo unspecified) | inactive |
| O=C(CCc1ccccc1)Nc1ncc([N+](=O)[O-])s1 | inactive |
| O=C(CN(c1cccc(Cl)c1)S(=O)(=O)c1ccccc1)NN=C1CCCC1 | active |
| CC(/C=C/c1ccco1)=N/NC(=O)C1COc2ccccc2O1 (stereo unspecified) | inactive |
| CCOC(=O)N1CCN(c2c(NCCN3CCN(c4ccccc4F)CC3)c(=O)c2=O)CC1 | inactive |
| O=C(Cc1c(F)cccc1Cl)Nc1ncc([N+](=O)[O-])s1 | inactive |
| CCNC(=O)CCc1nc(-c2ccc(C)cc2)no1 | inactive |
| CC(=O)Oc1ccccc1C(=O)Nc1ncc([N+](=O)[O-])s1 | active |
| NC(=S)Nc1c(Cl)cccc1Cl | inactive |
| CN1CCC(=NNC(=O)CN(c2cccc(Cl)c2)S(C)(=O)=O)CC1 | inactive |
| Cc1ccc(S(=O)(=O)N(CC(=O)N2CCc3ccccc3C2)c2cccc(Cl)c2)cc1 | inactive |
